Would you kindly list apparent KD of MS2 coat protein for each of these sequences?
Tested on: MS2 coat protein
experiment.notes: apparent KD of MS2 coat protein, switch OFF state (with FMN for OFF switches, without FMN for ON switches); designed switch direction (-1 OFF switch, 1 ON switch): 1; higher = weaker reporter binding
condition.info: FMN input: 0 or 200 uM; Eterna round: R93 (includes R88 designs)
Answer format: numeric, nM implied, no suffix.

Asked: Request the reported apparent KD of MS2 coat protein associated with AAAACCUGCGUCGAGGAUAUGUAGCCCACUACAUGAGGAUCACCCAUGUGGAUCUUACUGGGUCGACAGAAGGUGAAAGUUAGGC [Onlele]
Given back: 34.7

Asked: Consider the sequence shown here: AGCACGUGAUUGGAGGAUAUGUAGUAAGCAACAUGAGGAUCACCCAUGUCUGAGGCUGAAAACCAGCAGAAGGCCGAUACAACCA [SS2-1.6] What is its recorded apparent KD of MS2 coat protein?
Given back: 22.7

Asked: So what's the measured apparent KD of MS2 coat protein for this one? AAACCACAUGAGGAUCACCCAUGUAAAAAAUAUGGAGGAUAUACUAGAAGAAACAAAAUAGUAGAAGGCCAAAAAA [75%, Ex sub1, 29]
Given back: 24.6

Asked: Any idea what its apparent KD of MS2 coat protein is? The sequence is AAGAAACAUGAGGAUCACCCAUGUAGAAAUAUGGGAGGAUAUACGAAGACGAAAGUCAAAGUAGAAGGCCUAAAAG [Mat - Same State 1 - Eli mod - D107]
Given back: 68.7

Asked: // returns reported apparent KD of MS2 coat protein for input AAAAAACAUGAGGAUCACCCAUGUGAGAACAUGGGAGGAUAUACAAGGACGAGAGUCAAGGUAGAAGGCCUAAAGA [Mat - Same State 1 - Mod - D193]
Given back: 21.1

Asked: Which apparent KD of MS2 coat protein value belongs to AAUACACAUGGUCAGGAUAUCGCAGCUAGGACAUGAGGAUCACCCAUGUAAUAAGUAAAAGUAAAUGAGAAGGGACAGGGUGACC [JR_SS002_Sub405] ?
Given back: 206

---

Assignment: determine reported apparent KD of MS2 coat protein for the given sequences.
Tested on: MS2 coat protein
experiment.notes: apparent KD of MS2 coat protein; higher = weaker reporter binding
condition.info: Eterna round: R107; input ligand: theophylline 20 uM
Number only, in nM; omit the unit.

Asked: State the recorded apparent KD of MS2 coat protein for this entry: GUGUACAUGAGGAUCACCCAUGUCGAGUUACGAGGACCGGUACGGCCGCCACUCGGCGGCUCGACACGGAUAGCGAUGCGUUGCU [#18 Exclusion Tryptophan A]
Given back: 49.5

Asked: # query: apparent KD of MS2 coat protein of entry UGGGUACAUGAGGAUCACCCAUGUACUGAAGGAGCGGGACGAAUCUCAGGUAGGUCGCAGACAUGAGGAUCACCCAUGUAGUGGA [Exclusion Arginine A GF 15]
Given back: 17.8

Asked: Quick one: apparent KD of MS2 coat protein of AGUACUCGAACGGAUACCAGCCGGACAUGAGGAUCACCCAUGUCCUACCAUGUCUCGGUUGGCCCUUGGCAGCCGUUCGUGUACA [Omei Theo B SS A v2] ?
Given back: 469

---

Exercise: for every item that follows, state its recorded apparent KD of K4 kissing-loop reporter.
Tested on: K4 kissing-loop RNA reporter;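 also: bound reporter read as fluorescence of individual clusters on recovered sequencing chips by microscopy, with normalized cluster intensities fitted with a binding model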
experiment.notes: apparent KD of K4 kissing-loop reporter; higher = weaker reporter binding
condition.info: Eterna round: R107; input ligand: tryptophan 2.4 mM
Unit µM implied. Number only.

Asked: Reported apparent KD of K4 kissing-loop reporter, sequence AACUAUUAAUGAAUUACAUUUUAUUUUUCUCGAGGACCGGUACGGCCGCCACUCGUACUAUAGUGAUGUUAUAGAUAAGUCCUAA [JR_ExcTryptoA_Sub021] : ____
Given back: 0.0713

Asked: Find the recorded apparent KD of K4 kissing-loop reporter belonging to UGUCAUUGGUCUGAUACCAGUUGAUAAACUGGAGUGAUGUUCCAAGACGAGAAACUCGACAACCCUUGGCAGCAGACCGAUGACU [TheoBS 16 #SwitchBubble 13 #StaticStem] and report it.
Given back: 0.43

Asked: Looking for the measured apparent KD of K4 kissing-loop reporter of CUUGUACAAGUGAUGUUUGUUAUAUCCGAAGGAGCGUCGUACUAGACAGGUAGGUCGCGGAUGAAGAUAGUUUUUUUAAUAUCAU [JR_Nu_SSArginiA_Sub028] , can you help?
Given back: 0.533
